Test system: HT-29
Assay: NCI tumour cell line growth inhibition, 48 h
Active and inactive are the calls of the source. No stated cut-off is given here; in the data, active = GI50 up to about 1.1 µM and inactive = higher.
Pick one: Y for active, N for inactive

Prompt: How was `O=C(Nc1ccc2ncccc2c1)Nc1ccc2ncccc2c1` classified in this test?
Completion: N

Prompt: Called result for `O=C1C=CC(=C(c2ccccc2)c2ccc(O)cc2)C=C1`
Completion: N

Prompt: For `CC1(C)N=C(N)N=C(N)N1c1ccc(OCCCOc2ccccc2)c(Cl)c1` , which call appears in the assay record?
Completion: Y

Prompt: Entry CCOC(=O)C(C(=O)COC(C)(C)C)[C@@H]1C=C[C@H](OC(C)=O)C1 (some centres not stated) : call = ?
Completion: N

Prompt: Which outcome was assigned to `O=C1C=CC(=O)N1n1c(Cc2ccccc2)n[nH]c1=O` in this test?
Completion: N

Prompt: Could you check what this test reported for `OCC(CN1CCCCC1)(CN1CCCCC1)CN1CCCCC1` ?
Completion: N

More entries:
Prompt: Test call for this compound, please: `C[S+](C)([O-])=Nn1c(=O)n2n(c1=O)[C@H]1CC[C@@H]2C1`
Completion: N

Prompt: Per the records of this test, what outcome belongs to `COc1cc2c(cc1OCCCC(=O)Nc1cc(C(=O)Nc3cc(C(=O)Nc4cc(C(=O)NCCCN(C)C)n(C)c4)n(C)c3)n(C)c1)N=C[C@@H]1CCCN1C2=O` ?
Completion: N

Prompt: Test call, this compound: `Cc1ns/c(=N\C(=S)N(C)C)n1C`
Completion: N

Prompt: // return assay outcome for COc1ccc(OC)c(N2C(=O)CSC2c2cc(OC)c(OC)c(OC)c2)c1 (configuration not stated)
Completion: N

Prompt: So what was the verdict on `COC1=C(Br)C(=O)c2nc(C)ccc2C1=O` in this test?
Completion: N

* * *

Tested on: 786-0
Experiment: NCI tumour cell line growth inhibition, 48 h
Calls of active or inactive are those of the source. Cut-off read from the data, not from the text of the source: active = GI50 up to about 1.1 µM and inactive = higher.
Respond with a class label; see 1 (yes) = active, 0 (no) = inactive

Example entries begin here.
Prompt: Hi, sorry to bother you, what did the test record for `COc1ccc(NC(=O)COC(=O)c2cccc3c(=O)c4ccccc4[nH]c23)cc1` ?
Completion: 0 (no)

Prompt: Identify the outcome logged in this assay for the molecule shown: COc1ccc(-c2nc(N)c3ncn(C4OC(CO)C(O)C4O)c3n2)cc1 (stereo unspecified)
Completion: 0 (no)

Prompt: What classification did COc1ccc(N(CN2C(=O)CCC2OC)C(C)=O)cc1 (stereo unspecified) end up with in this test?
Completion: 0 (no)

Prompt: Identify the outcome logged in this assay for the molecule shown: `Cc1nnc(N2C(=O)C(=Cc3ccc(Cl)cc3)N=C2c2ccc(Cl)cc2)nc1/C=C\c1ccc(N(C)C)cc1`
Completion: 0 (no)

Prompt: GET /call?item= `O=C(O)CNCc1c2ccccc2nc2ccccc12` returns the recorded outcome of this test.
Completion: 0 (no)

Prompt: What is the recorded call for this molecule in the test? CCC(C)C(N)C(=O)N/N=C\c1c2c(nc3ccccc13)-c1cc3c(c(=O)n1C2)COC(=O)[C@]3(O)CC (stereo partly specified)
Completion: 1 (yes)

Prompt: I would be grateful if you could indicate the recorded call for `C=CCOc1ccc2c(C)cc(=O)oc2c1C` .
Completion: 0 (no)

Prompt: What is the recorded call for this molecule in the test? CCOC(=O)Oc1ccc(C(CNC(C)C)OC(=O)OCC)cc1OC(=O)OCC (stereo unspecified)
Completion: 0 (no)

Prompt: Which outcome was assigned to `O=C(O)c1ccc(P(=O)(O)c2ccc(C(=O)O)cc2Br)c(Br)c1` in this test?
Completion: 0 (no)

Prompt: Dear all, I need the recorded test outcome for COc1ccc(NC(C)=O)cc1N1C(=O)/C(=C\c2cccc(Oc3ccccc3)c2)S(=O)(=O)C1c1ccccc1 (stereo unspecified) , thank you.
Completion: 0 (no)

Continuing:
Prompt: Any idea what this test logged for `CC1(CC2=C(C(=O)NCCO[Si](C)(C)C(C)(C)C)C3(OCCO3)C2=O)OCCO1` ?
Completion: 0 (no)

Prompt: Dear colleague, could you share the recorded outcome for `CN(C)C(=S)SCC(=O)Nc1ccccc1` when you have a moment?
Completion: 0 (no)

Prompt: What is the recorded call for this molecule in the test? COc1ccc(COCC[C@H](C)OC2OC(CO)C(O)C(O)C2O)cc1 (stereo partly specified)
Completion: 0 (no)

* * *

Tested on: SK-MEL-5
Assay: NCI tumour cell line growth inhibition, 48 h
Active and inactive are the calls of the source. No stated cut-off is given here; in the data, active = GI50 up to about 1.1 µM and inactive = higher.
Pick one and only one: 1.0 for active, 0.0 for inactive

Recorded results for 5 compounds are shown here.
Prompt: Per the records of this test, what outcome belongs to `COc1ccc(CCN2CCC(C#N)(c3ccc(OC)c(OC)c3)CC2)cc1OC` ?
Completion: 0.0

Prompt: Recorded call for COC1=C(Br)[C@H](O)[C@@]2(C=C1Br)CC(C(=O)NCCCCCNC(=N)N)=NO2 [APLYSINAMISINE II] ?
Completion: 0.0

Prompt: Could you please tell me the result logged for COC(=O)c1sc2ncc3c(c2c1N)CC(C)CC3 (stereo not drawn) in this assay?
Completion: 0.0

Prompt: Called result for `CN(C)CCn1c(=O)c2ccc3c4c(nn3CCN(C)C)c3cc([N+](=O)[O-])ccc3n(c1=O)c24`
Completion: 1.0

Prompt: # outcome recorded in this test, key = `CC(=O)O[C@H]1CC[C@@]2(C)C(=CC[C@@H]3[C@@H]2CC[C@]2(C)C(=N/O)/C(=C\c4ccccc4)C[C@@H]32)C1`
Completion: 0.0

Others:
Prompt: // param item: `N#Cc1ccc(CSC2=C(c3ccc(Cl)cc3)S/C(=C3\SC(SCc4ccc(C#N)cc4)=C(c4ccc(Cl)cc4)S3)S2)cc1` ; yields the recorded call
Completion: 0.0

Prompt: Kindly provide the recorded test outcome for the following compound: `COc1ccc(CC(=O)c2cc(OC)c(OC)cc2C)cc1OC`
Completion: 0.0

Prompt: Could you check what this test reported for COC(=O)/C(=N\NC(N)=O)C(C(=O)C=C(C)C)C(=O)C(=O)Nc1ccc(Cl)c(Cl)c1 (stereo not drawn) ?
Completion: 0.0

* * *

System: SN12C
Assay: NCI tumour cell line growth inhibition, 48 h
Active and inactive are the calls of the source. Cut-off read from the data, not from the text of the source: active = GI50 up to about 1.1 µM and inactive = higher.
Value Kind: GI50

Sample records with GI50:
Prompt: Dear colleague, I am looking for the recorded GI50 of the following molecule: `CC(C)c1ccc(/C=C2\N=C(c3ccc([N+](=O)[O-])cc3)OC2=O)cc1`
Completion: > 100 µM (inactive)

Prompt: So what's the measured GI50 for this one? `Nc1c(C(=O)c2ccc(Cl)cc2)[nH]c(NCc2ccccc2)c1C(=S)Nc1ccccc1`
Completion: 4.89 µM (inactive)

Read the next record carefully.
Prompt: What value of GI50 has been reported for the following molecule? `CSC1=C(C)C(/C=N/Nc2ccc([N+](=O)[O-])cc2)=C(C)N(c2ccccc2)S1(=O)=O`
Completion: > 100 µM (inactive)

* * *

Each item that follows carries a reported GI50.
Test system: SNB-19
Assay: NCI tumour cell line growth inhibition, 48 h
Calls of active or inactive are those of the source. Cut-off read from the data, not from the text of the source: active = GI50 up to about 1.1 µM and inactive = higher.

Prompt: Fill blank: measured GI50 of the compound `CN(C)c1ccc(N2C(=S)SC(=N\c3ccccc3)/C2=N/c2ccccc2)cc1` is ____.
Completion: > 100 µM (inactive)

Prompt: Please give the measured GI50 for this compound: `CCCCCC(=O)OCCOCCOCCOCCOCCOCc1ccccc1`
Completion: > 100 µM (inactive)

Prompt: I'd like to know its GI50. The compound in question is CC(=O)/C=C1/c2ccccc2N(C(C)=O)C1O (stereo not given)
Completion: > 100 µM (inactive)

Prompt: Any idea what its GI50 is? The compound is `COc1cc2c(OC)cc1CSCc1sc(C)c(c1Br)CSC2`
Completion: > 100 µM (inactive)

Prompt: Name the reported GI50 value associated with the compound `[N-]=[N+]=Nc1c(Cl)c(=O)n(-c2ccccc2)c2ccccc12`
Completion: 28.9 µM (inactive)

Next:
Prompt: Which value of GI50 has been reported for CC(NC(=O)Cc1ccc(OP(=O)(OCc2ccc([N+](=O)[O-])o2)N(C)CCCCCl)cc1)c1ccc(OCC2CCCCC2)c(C(N)=O)c1 (stereo not given) in the records?
Completion: 3.3 µM (inactive)

Prompt: Which value of GI50 has been reported for `Nc1c(C(=O)c2ccc(Cl)cc2)[nH]c(NCc2ccccc2)c1C(=S)Nc1ccccc1` in the records?
Completion: 4.07 µM (inactive)

Prompt: Consider the compound `COc1ccc(OC)c2sc(N3C(=O)/C(=C/c4ccccc4S)N=C3c3ccccc3)nc12` and give its measured GI50.
Completion: 69.2 µM (inactive)

Prompt: Returns the measured GI50 for the input compound. Input: `Cc1cccc(-c2cc(O)c3c(C)cc(C)nc3n2)c1`
Completion: 4.38 µM (inactive)

Prompt: What does the record list as GI50 for `O=C1NC(=S)N/C1=C\c1ccc(Cl)cc1` ?
Completion: > 100 µM (inactive)
